- SUBJECT_OF_TEST: Neurogenic locus notch homolog protein 3 (Homo sapiens) (UniProt Q9UM47)
- Sequence (Q9UM47 whole entry, looked up): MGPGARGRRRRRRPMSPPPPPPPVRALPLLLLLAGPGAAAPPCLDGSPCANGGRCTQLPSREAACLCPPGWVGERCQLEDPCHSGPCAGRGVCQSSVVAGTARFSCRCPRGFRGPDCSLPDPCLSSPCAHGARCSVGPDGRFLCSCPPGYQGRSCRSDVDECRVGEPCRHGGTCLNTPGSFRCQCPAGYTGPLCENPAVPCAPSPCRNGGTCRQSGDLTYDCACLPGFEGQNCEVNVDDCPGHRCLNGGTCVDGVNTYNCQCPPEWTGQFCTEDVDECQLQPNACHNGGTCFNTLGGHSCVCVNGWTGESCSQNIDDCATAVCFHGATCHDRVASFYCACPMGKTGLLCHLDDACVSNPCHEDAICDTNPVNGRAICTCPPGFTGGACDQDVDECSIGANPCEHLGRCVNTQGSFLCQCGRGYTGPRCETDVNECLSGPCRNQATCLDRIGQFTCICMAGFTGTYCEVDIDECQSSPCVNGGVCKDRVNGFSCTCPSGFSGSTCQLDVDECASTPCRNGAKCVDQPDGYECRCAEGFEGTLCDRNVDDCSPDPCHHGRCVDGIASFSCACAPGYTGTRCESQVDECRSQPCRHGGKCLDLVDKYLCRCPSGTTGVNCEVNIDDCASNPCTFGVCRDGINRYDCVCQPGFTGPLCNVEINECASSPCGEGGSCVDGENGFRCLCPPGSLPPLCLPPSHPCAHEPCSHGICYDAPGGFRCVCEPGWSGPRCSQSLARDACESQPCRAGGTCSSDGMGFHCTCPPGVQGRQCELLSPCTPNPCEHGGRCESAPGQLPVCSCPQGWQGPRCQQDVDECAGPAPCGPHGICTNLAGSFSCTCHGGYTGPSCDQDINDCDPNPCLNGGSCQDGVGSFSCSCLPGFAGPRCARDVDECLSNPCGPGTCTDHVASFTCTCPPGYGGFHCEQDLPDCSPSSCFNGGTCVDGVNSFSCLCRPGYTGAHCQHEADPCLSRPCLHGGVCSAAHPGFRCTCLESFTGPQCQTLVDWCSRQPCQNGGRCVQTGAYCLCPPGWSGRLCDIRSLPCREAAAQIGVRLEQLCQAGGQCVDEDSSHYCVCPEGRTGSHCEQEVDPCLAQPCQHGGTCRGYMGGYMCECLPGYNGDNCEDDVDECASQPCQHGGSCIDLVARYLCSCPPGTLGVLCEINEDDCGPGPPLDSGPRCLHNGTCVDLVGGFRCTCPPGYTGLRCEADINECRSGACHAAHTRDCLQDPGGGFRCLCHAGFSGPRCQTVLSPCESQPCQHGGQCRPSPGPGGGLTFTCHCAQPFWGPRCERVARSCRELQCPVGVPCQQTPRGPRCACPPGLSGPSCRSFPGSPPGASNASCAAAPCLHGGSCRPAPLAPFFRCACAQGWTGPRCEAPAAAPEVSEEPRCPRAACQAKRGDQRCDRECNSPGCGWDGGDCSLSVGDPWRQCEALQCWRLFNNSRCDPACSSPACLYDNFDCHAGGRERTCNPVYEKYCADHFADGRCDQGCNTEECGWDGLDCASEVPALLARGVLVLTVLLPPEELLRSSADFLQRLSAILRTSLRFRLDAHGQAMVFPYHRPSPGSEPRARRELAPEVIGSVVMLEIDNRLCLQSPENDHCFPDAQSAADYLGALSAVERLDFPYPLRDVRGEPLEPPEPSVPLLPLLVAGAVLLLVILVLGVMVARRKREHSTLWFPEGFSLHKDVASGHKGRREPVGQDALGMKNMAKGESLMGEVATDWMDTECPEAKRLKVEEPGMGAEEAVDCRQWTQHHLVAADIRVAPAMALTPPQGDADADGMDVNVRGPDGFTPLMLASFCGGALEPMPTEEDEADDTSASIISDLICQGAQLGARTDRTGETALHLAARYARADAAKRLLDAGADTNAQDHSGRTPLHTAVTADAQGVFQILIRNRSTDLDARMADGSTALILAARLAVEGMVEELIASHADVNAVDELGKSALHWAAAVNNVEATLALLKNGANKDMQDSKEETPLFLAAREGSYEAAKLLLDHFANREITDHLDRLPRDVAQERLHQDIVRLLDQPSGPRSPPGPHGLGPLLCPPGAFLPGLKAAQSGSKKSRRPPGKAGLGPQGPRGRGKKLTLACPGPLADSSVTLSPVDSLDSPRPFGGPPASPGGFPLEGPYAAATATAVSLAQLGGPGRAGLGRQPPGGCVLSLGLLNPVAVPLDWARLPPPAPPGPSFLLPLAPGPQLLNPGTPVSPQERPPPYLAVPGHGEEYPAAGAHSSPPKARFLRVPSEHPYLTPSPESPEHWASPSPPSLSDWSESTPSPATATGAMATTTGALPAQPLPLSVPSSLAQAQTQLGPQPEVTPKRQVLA
- MEASUREMENT_PROTOCOL: NOTCH3 binders on small-molecule microarray, primary screen, biochemical, 635/667 nm fluorescence (AID 1096)
- CONDITION_DESCRIPTION: NOTCH3 binding, 635 nm fluorescence, higher = more signal
Threshold check on composite z-score: at or above 0.5 gives True, strictly below gives False.

{"MOLECULE": "C=C(COC)/C(=C/C[C@@H](OC(=O)c1ccncc1)c1ccc(CO)o1)c1cnc2ccccc2c1", "LABEL_VALUE": "True"}
{"MOLECULE": "O=c1cccc(-c2cccc(Cl)c2)o1", "LABEL_VALUE": "False"}
{"MOLECULE": "Cc1ccc(C(C)CC(O)C2C=CC3C(=O)N(c4ccccc4)C(=O)C3N2Nc2ccc(C(C)C)cc2)o1 (configuration not stated)", "LABEL_VALUE": "True"}
{"MOLECULE": "COCCCNC(=O)[C@]1(Cc2ccccc2N=[N+]=[N-])N=C(c2ccc(OCCCO)cc2)O[C@@H]1c1ccccc1N=[N+]=[N-]", "LABEL_VALUE": "True"}
{"MOLECULE": "COCCOC(=O)N1C(=O)[C@@]2(c3cc(C#CC4=CCCCC4)ccc31)[C@H](C(=O)N1CCN(c3ncccn3)CC1)[C@H]1C(=O)O[C@H](c3ccccc3)[C@H](c3ccccc3)N1[C@@H]2c1ccc(O)cc1", "LABEL_VALUE": "True"}
{"MOLECULE": "CC(C)CN1C(=O)[C@@]2(c3ccc([N+](=O)[O-])cc3)CC(=O)N(CC34CC5CC(CC(C5)C3)C4)[C@@H]2c2ccc(CO)cc21", "LABEL_VALUE": "False"}
